- ASSAY_SYSTEM: hCB1Rs (Homo sapiens)
- Construct: host or cells: CHO-K1 (CHO-hCB1)
- Sequence (P21554 whole entry): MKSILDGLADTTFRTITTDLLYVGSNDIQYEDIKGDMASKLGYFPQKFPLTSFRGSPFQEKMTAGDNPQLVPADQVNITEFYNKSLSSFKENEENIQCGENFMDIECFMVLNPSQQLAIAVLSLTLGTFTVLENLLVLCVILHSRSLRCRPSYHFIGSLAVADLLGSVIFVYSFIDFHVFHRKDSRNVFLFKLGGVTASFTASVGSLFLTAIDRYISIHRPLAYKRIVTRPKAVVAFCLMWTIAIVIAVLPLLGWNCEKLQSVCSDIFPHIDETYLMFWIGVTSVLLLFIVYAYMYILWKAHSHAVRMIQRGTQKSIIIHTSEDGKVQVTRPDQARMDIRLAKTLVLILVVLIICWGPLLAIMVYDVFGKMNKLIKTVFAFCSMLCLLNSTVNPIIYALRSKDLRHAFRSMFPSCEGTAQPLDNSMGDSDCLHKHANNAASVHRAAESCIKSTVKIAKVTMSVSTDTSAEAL
- ASSAY_NAME: biochemical
- Assay type: binding
- TEST_PARAMETERS: Ki, [^3H]CP-55,940 binding, CHO-hCB1 membranes, 0.2 nM [^3H]CP-55,940, Cheng-Prusoff
pKi: −log10 of the molar value.
PROPERTY_LABEL: pKi

> print(dat)
                                   compound  observed.result
1  CC(O)CCCn1nc(C(=O)NC(C(N)=O)C(C)C)c2ccccc21 (stereo not drawn)             6.80
2  CC(C)C(NC(=O)c1nn(CCCCCO)c2ccccc12)C(N)=O (stereo not drawn)             6.34
3  CCCCCn1nc(C(=O)N[C@H](C(N)=O)C(C)C)c2ccccc21             8.40
